Would you mind telling me the reported growth of each entry?
System: LOX IMVI melanoma
Assay: NCI-60 one-dose screen, 48 h (100 = growth as untreated, 0 = no growth, -100 = all killed)
Conditions: 10 µM unless noted
Compounds without any hit were thinned out: in the full panel of roughly 83,000, 20% have a hit.
Numbers only; they are read as %.

What does the record list as growth for COc1ccc(/C=C/c2nc(NCCCN(C)C)c3ccccc3n2)cc1 ?
-67.1

Which measured growth value corresponds to c1csc(-c2cnc3nonc3n2)c1 ?
62.6

Query (compound): NC(N)=N/N=C/c1cccc(Cl)c1Cl ; field requested: growth
76.4

Can you share its growth? I mean this compound: COc1cc(C2CC(c3ccccc3)=NN2C=O)ccc1Oc1ccnc2cc(Cl)ccc12 (stereo unspecified)
56.6

Quick check: growth of C=CCOC(=O)C1=C(C)NC2=C(C(=O)CC(C)(C)C2)C1c1ccc(OC)cc1 (stereo unspecified) ?
102

Given the compound COc1ccc([C@H]2c3[nH]c4ccccc4c3C[C@H]3C(=O)N(CCCCCCC(=O)NO)CC(=O)N23)cc1 , what is its reported growth?
13.1

What value of growth has been reported for the following compound? COc1ccc(C(=O)OC2C(OC3C(O)COC(O[C@H]4C[C@H]5[C@@H]6CC=C7C[C@@H](O)CC[C@]7(C)[C@H]6CC[C@]5(C)[C@H]4[C@H](C)C(=O)CCC(C)C)C3OC(N)=O)OCC(O)C2O)cc1 (stereo partly specified)
-58.3

Record request: growth value, item Cc1ccc(C)c(NC(=O)c2sc3c(=O)[nH]cnc3c2C)c1
85

What value of growth has been reported for the following compound? N=C(N)c1ccc(NCCNc2ccc(C(=N)N)cc2)cc1
86.8

GET /values?readout=growth&item= N=C(N)c1ccc(-c2ccc(-c3cccs3)s2)cc1F
-76.7

Can you look up the measured growth of CC(C)OC1OC(OC(C)C)C(OC(C)C)OC1OC(C)C (stereo unspecified) for me?
102

Consider the compound shown here: COc1ccc(/C(C)=N/NC(=O)CSc2nc3ccccc3c(=O)n2CCc2ccc(S(N)(=O)=O)cc2)cc1 What is its recorded growth?
28.3

Suppose we examine the compound CCCCCCCCCCCCNC(=O)N[C@H](C(=O)N[C@H]1/C=C/OCCNC(=O)/C=C/[C@H](C(C)C)NC1=O)C(C)C ; what growth value has been reported?
55.7

# growth lookup, item CCOC(=O)C1C(=O)C=C(c2ccccc2)CC1c1sc(N(C)Cc2ccccc2)nc1Cl (stereo unspecified)
88.2

# input compound: O=P(O)(O)C(O)(Cc1cccnc1)P(=O)(O)O ; wanted: its growth
86.1

Quick one: growth of CCCCCCCCOC(=O)C(C)OC(=O)OCCOCCOC(=O)OC(C)C(=O)OCCCCCCCC (stereo unspecified) ?
101

State the recorded growth for this entry: CCCCCCCCCCCCCC1=NC(C)(C)CN1C(C)C
-74.1

I have this compound here, CCN(CC)C(=O)O/N=C(/C)c1ccccc1 , and I need its recorded growth.
91.1

Given the entry C=C[C@H]1CCC/C=C/[C@@H]2C[C@H](O)C[C@H]2[C@H](O)/C=C/C(=O)O1 , report its measured growth.
-99.1

// returns reported growth for input CC(C)CCSc1nc(-c2ccc(F)cc2)c(C#N)c(N2CCCCC2)n1
93

May I ask what growth has been recorded for COc1cc([N+](=O)[O-])cc(OC)c1OC ?
100

Cited source: PubChem BioAssay (NCI)
